assay_notes: Antagonist activity at CRTH2 receptor in human whole blood assessed as inhibition of PGD2-induced eosinophil shape change after 10 mins by fluorescence assay
Hi! Could you tag entries with IC50 below 6 nM as true, and those at or above as false? Much appreciated.

Cc1nnc(C2CC2)n1Cc1cc(C(F)(F)F)ccc1-n1cc(CC(=O)O)c2ccc(F)cc21 ... false
Cc1ccc2c(CC(=O)O)cn(-c3ccc(Cl)cc3Cc3c(C4CC4)noc3C3CC3)c2n1 ... false
Cc1ccc(-n2cc(CC(=O)O)c3ccc(C)nc32)c(Cn2c(C)nnc2C)c1 ... true
Cc1nnc(C2CC2)n1Cc1cc(C(F)(F)F)ccc1-c1cn(CC(=O)O)c2ccc(F)cc12 ... true
Cc1ccc2c(CC(=O)O)cn(-c3ccc(C(F)(F)F)cc3Cc3c(C4CC4)noc3C3CC3)c2n1 ... false
Cc1ccc2c(CC(=O)O)cn(-c3ccc(Cl)cc3Cn3c(C)nnc3C3CC3)c2n1 ... true
Cc1ccc2c(CC(=O)O)cn(-c3ccc(C(F)(F)F)cc3Cc3c(C)noc3C3CC3)c2n1 ... true

Does the reported IC50 of the following compound sit strictly below 6 nM? Cc1noc(C2CC2)c1Cc1cc(F)ccc1-c1cn(CC(=O)O)c2ccc(C(F)(F)F)cc12
false

====

Reported pIC50 values for the following molecules.
assay_notes: Antagonist activity at CRTH2 receptor in human whole blood assessed as inhibition of PGD2-induced eosinophil shape change after 10 mins by fluorescence assay
Please treat pIC50 as minus the base-10 logarithm of the molar concentration.

Cc1ccc2c(CC(=O)O)cn(-c3ccc(Cl)cc3Cn3c(C)nnc3Cc3ccccc3)c2n1 ... 8.70
Cc1ccc2c(CC(=O)O)cn(-c3ccc(Cl)cc3Cn3c(C)nnc3CCc3ccccc3)c2n1 ... 8.30
Cc1ccc2c(CC(=O)O)cn(-c3ccc(F)cc3Cc3c(C)noc3C3CC3)c2n1 ... 9.00
Cc1ccn2c(CC(=O)O)cc(-c3ccc(C(F)(F)F)cc3Cc3c(C)noc3C3CC3)c2n1 ... 7.59

# context switch: different molecule, same pIC50
Input Cc1noc(C2CC2)c1Cc1cc(C(F)(F)F)ccc1-c1cn(CC(=O)O)c2ccc(C(F)(F)F)nc12 , output reported pIC50.
7.27
